- System: Saccharomyces cerevisiae
- Measurement Description: protein stability index of tFT-peptide fusion (C-terminal peptide) (PSI (0-1 scale)); higher = more stable (slower turnover)
- Measurement Parameters: genetic background: doa10 deletion; temperature: 30 C
Attribute Measured: protein stability index

Examples from the recorded data:
FLCLLFYLSFFS    0.378
VYEVELSVRVTV    0.404
SGRKNQRILGLY    0.199

Now let's try a different one.
query: Fill in the blank: the reported protein stability index of `VKVIILYKIIEV` is ____.
result: 0.29

====

- Test system: Saccharomyces cerevisiae;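 further: PSI is a weighted mean of sequencing reads over stability bins, variants kept only with over 10 reads, mCherry proximal and sfGFP distal, peptide attached via GGGS linker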
- Measurement Description: protein stability index of tFT-peptide fusion (C-terminal peptide) (PSI (0-1 scale)); higher = more stable (slower turnover)
- Measurement Parameters: genetic background: das1 deletion; temperature: 37 C
Attribute Measured: protein stability index
Just the number, please, no unit after it.

EFEIALTLIRSI    0.726
FSFSCFFFVLFV    0.11
LLCGVLFFFWVV    0.525
FVFLVLGPYAMF    0.609
LFGFYFVRCLVW    0.263
ALLLLLRRFFLV    0.739

query: Fill in the blank: the reported protein stability index of `GLFFLCLLSMCF` is ____.
result: 0.423

query: What do you get for `WSFPFFLLPFLF` ?
result: 0.51

query: What do you get for `FFCCVLFSIVVY` ?
result: 0.167

query: What do you get for `PFFSSLKYRRDH` ?
result: 0.77

Recorded values, source the supplement of paper PMC10724198.
